Where do these numbers come from? They come from ChEMBL document CHEMBL1961873.

SYSTEM_UNDER_TEST: Ribosomal protein S6 kinase alpha-1 (Homo sapiens) (UniProt Q15418);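 further: mean inhibition of RSK1, reported in the GSK PKIS screen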
Sequence (Q15418 whole entry): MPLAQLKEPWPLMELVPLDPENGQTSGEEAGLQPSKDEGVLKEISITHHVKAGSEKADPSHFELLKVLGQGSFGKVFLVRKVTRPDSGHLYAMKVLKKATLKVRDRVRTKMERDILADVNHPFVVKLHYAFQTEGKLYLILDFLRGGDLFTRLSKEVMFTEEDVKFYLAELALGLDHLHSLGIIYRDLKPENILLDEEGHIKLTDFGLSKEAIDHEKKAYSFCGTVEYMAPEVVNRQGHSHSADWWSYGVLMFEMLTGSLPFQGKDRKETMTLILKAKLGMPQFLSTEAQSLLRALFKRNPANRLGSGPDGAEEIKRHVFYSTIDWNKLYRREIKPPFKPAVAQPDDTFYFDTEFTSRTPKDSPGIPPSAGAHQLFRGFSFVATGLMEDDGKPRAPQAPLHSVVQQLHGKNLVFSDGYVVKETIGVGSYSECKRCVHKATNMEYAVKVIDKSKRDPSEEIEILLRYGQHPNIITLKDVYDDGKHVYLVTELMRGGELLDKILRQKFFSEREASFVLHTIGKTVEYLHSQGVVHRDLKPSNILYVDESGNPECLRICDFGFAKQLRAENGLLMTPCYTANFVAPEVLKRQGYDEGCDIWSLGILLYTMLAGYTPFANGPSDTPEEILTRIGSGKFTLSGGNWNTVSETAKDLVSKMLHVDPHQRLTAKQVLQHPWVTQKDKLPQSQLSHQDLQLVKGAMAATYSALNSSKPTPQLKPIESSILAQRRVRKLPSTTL
RUN_CONDITIONS: at 1 µM
PARAMETER_MEASURED: inhibition

Query string: Look up inhibition for this compound: "COc1cccc(-n2ncc3c(N/N=C/c4ccc(C)cc4)ncnc32)c1"
Result string: 6.59%

Query string: Suppose we examine the compound "Cc1cc(O)cc(C)c1/C=C/c1cncc(C(=O)N(C)C)c1" ; what inhibition value has been reported?
Result string: 3.54%

Query string: Requested field: inhibition. Item: "COC(=O)c1ccc2c(c1)C(=Cc1cc(Br)c(O)c(Br)c1)C(=O)N2"
Result string: 6.51%

Query string: # query: inhibition of entry "Nc1nccc(C#Cc2cncnc2Nc2ccc(OCc3cccc(F)c3)c(Cl)c2)n1"
Result string: 2.85%

Query string: Any idea what inhibition was measured for "CCn1c(-c2nonc2N)nc2c(C#CC(C)(C)O)nc(OCCNC)cc21" ?
Result string: 4.86%

Query string: State the recorded inhibition for this entry: "C[C@@H](Oc1cc(-n2cnc3ccc(OCC4CCN(C)CC4)cc32)sc1C(N)=O)c1ccccc1C(F)(F)F"
Result string: 32.7%

Query string: I have this compound here, "CN1CCN(C(=O)c2ccc(NC(=O)Nc3ccc(N(C)c4ccnc(Nc5ccc(CS(C)(=O)=O)cc5)n4)cc3)cc2)CC1" , and I need its recorded inhibition.
Result string: 2.5%

Query string: Look up inhibition: "CCOc1nccc2c1nc(-c1nonc1N)n2CC"
Result string: 30%

Query string: So what does the record say about inhibition for "O=C(Nc1ccc(Oc2ccc3[nH]c(NC(=O)c4ccco4)nc3c2)cc1)Nc1cc(C(F)(F)F)ccc1F" ?
Result string: 10.2%

====

Give measured inhibition for each item. Keep answers brief.
SYSTEM_UNDER_TEST: Serine/threonine-protein kinase 26 (Homo sapiens) (UniProt Q9P289)
Sequence (Q9P289 2-416 limits assumed): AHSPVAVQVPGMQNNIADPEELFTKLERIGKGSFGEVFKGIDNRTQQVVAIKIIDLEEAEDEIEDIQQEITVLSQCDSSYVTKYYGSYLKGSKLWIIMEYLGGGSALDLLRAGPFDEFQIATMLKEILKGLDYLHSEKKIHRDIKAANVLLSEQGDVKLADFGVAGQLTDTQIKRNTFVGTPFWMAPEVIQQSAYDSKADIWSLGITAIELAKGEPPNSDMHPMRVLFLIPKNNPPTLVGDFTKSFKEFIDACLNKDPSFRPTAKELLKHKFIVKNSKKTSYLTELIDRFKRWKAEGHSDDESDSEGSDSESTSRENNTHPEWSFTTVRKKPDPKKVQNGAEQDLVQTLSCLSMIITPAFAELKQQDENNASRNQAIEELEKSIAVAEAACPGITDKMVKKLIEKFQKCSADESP
RUN_CONDITIONS: at 0.1 µM
Description: GSK_PKIS: MST4 mean inhibition at 0.1 uM [Nanosyn]
Number only, in %; omit the unit.

Query string: Please look up its inhibition: "CN1CCN(C(=O)c2ccc(NC(=O)Nc3ccc(N(C)c4ccnc(Nc5ccc(CS(C)(=O)=O)cc5)n4)cc3)cc2)CC1"
Result string: 1.7

Query string: # input compound: "COc1cc2ncnc(Nc3ccc4c(cnn4Cc4ccccc4)c3)c2cc1OC" ; wanted: its inhibition
Result string: -0.63

Query string: Fill blank: measured inhibition of the compound "OCc1ccc(-c2nc(-c3ccccn3)c(-c3ccc4c(c3)OCO4)[nH]2)cc1" is ____.
Result string: -1.45

Query string: Would you kindly share the measured inhibition for "Cc1ccc2c(-c3ccnc(Nc4cccc(C(F)(F)F)c4)n3)c(-c3ccccc3)nn2n1" ?
Result string: 0.2

Query string: # input compound: "CCS(=O)(=O)c1ccc(OC)c(Nc2ncc(-c3cccc(OC)c3)o2)c1" ; wanted: its inhibition
Result string: -1.42

Query string: May I ask what inhibition has been recorded for "COc1cc2ncnc(Nc3ccc(C)c(O)c3)c2cc1OC" ?
Result string: -1.09

Query string: inhibition for "Nc1nccc(-c2c(-c3ccc(F)cc3)ncn2CCCN2CCOCC2)n1" ?
Result string: -0.66

Query string: What value of inhibition has been reported for the following compound? "Cc1ccc2c(-c3ccnc(Nc4ccc5c(c4)OCCO5)n3)c(-c3ccc(C(F)(F)F)cc3)nn2n1"
Result string: 1.07

Query string: Give its inhibition value. Item: "O=C(Nc1ccc(Oc2ccc3[nH]c(NC(=O)c4ccco4)nc3c2)cc1)Nc1cc(C(F)(F)F)ccc1F"
Result string: 0.66

Query string: I would be grateful if you could share the reported inhibition for "c1ccc(Nc2ncc(-c3ccccc3)o2)cc1" .
Result string: -1.38

Query string: Consider the compound "CCS(=O)(=O)c1ccc(OC)c(Nc2nccc(N(C)c3ccc4c(C)n[nH]c4c3)n2)c1" and give its measured inhibition.
Result string: -2.14

Query string: Can you look up the measured inhibition of "CS(=O)(=O)Nc1cccc(-c2ccc3c(NC(=O)C4CC4)n[nH]c3c2)c1" for me?
Result string: -3.32

Query string: // returns reported inhibition for input "COc1cccc(-n2ncc3c(N/N=C/c4ccc(C)cc4)ncnc32)c1"
Result string: -1.81

Query string: Request the reported inhibition associated with "NS(=O)(=O)c1cccc(-c2cc3ccncc3cc2OCc2ccccc2)c1"
Result string: -2.99

Query string: Given "CC(C)c1ccc2c(c1)NC(=O)/C2=N/Nc1ccc(S(N)(=O)=O)cc1" , state its recorded inhibition.
Result string: -0.9

Query string: Endpoint output: inhibition of "Nc1nccc(-c2c(-c3ccc(F)cc3)nn3cc(C(F)(F)F)ccc23)n1" . Value?
Result string: 0.43

Query string: # get_value(readout='inhibition', item= "CC(C)c1ccc(Nc2nccc(-c3cnn4ncccc34)n2)cc1" )
Result string: 0.23

Query string: Given "CN(c1ccc(NC(=O)Nc2ccc(OC(F)(F)F)cc2)cc1)c1ccnc(Nc2cccc(S(N)(=O)=O)c2)n1" , state its recorded inhibition.
Result string: -1.04

Query string: Returns the measured inhibition for the input compound. Input: "COc1cc(Nc2nccc(-c3cnn4ncccc34)n2)cc(OC)c1"
Result string: 0.99

Query string: Which inhibition value belongs to "O=C1Nc2ccccc2/C1=C/Nc1ccc2[nH]c(=O)[nH]c2c1" ?
Result string: -1.35

Query string: Which inhibition is listed for "NS(=O)(=O)c1ccc(N/N=C2\C(=O)Nc3ccc(Cl)cc32)cc1" ?
Result string: 1.38

Query string: Please report the recorded inhibition for "CS(=O)(=O)CCNCc1nc(-c2ccc3ncnc(Nc4ccc(OCc5cccc(C(F)(F)F)c5)cc4)c3c2)cs1" .
Result string: -0.02

Query string: inhibition for "N#Cc1c(NC(=O)c2ccccc2F)sc2c1CCCC2" ?
Result string: -0.08

Query string: Would you kindly share the measured inhibition for "COC(=O)c1ccc2c(c1)C(=Cc1cc(Br)c(O)c(Br)c1)C(=O)N2" ?
Result string: 1.49

Query string: Fill in: inhibition of "Cc1ccc(C(=O)NC2CC2)cc1-c1ccc2[nH]ncc2c1" is ___
Result string: -0.05

Query string: Requested read-out: inhibition. Entry: "[O-][S+]1CCN(Cc2ccc(-c3ccc4ncnc(Nc5ccc(OCc6ccccc6)c(Cl)c5)c4c3)o2)CC1"
Result string: -0.67

Query string: Request the reported inhibition associated with "COC(=O)c1cncc(/C=C/c2c(C)cc(O)cc2C)c1"
Result string: -1.08

Query string: Fill in: inhibition of "CN(C)C(=O)O[C@H]1CN[C@H](C#Cc2cc3ncnc(Nc4ccc(OCc5cccc(F)c5)c(Cl)c4)c3s2)C1" is ___
Result string: -0.23

Query string: Quick one: inhibition for "CN(C)CCCn1c(-c2nonc2N)nc2cnccc21" ?
Result string: -1.82

Query string: # lookup: inhibition of "COc1cccc(-n2ncc3c(N/N=C/c4ccc(S(C)(=O)=O)cc4)ncnc32)c1"
Result string: 1.71

Query string: Recorded inhibition of "CCOc1nccc2c1nc(-c1nonc1N)n2CC" , please.
Result string: 0.4

Query string: If you can, please state the reported inhibition value of "CCn1c(-c2nonc2N)nc2ccc(F)cc21" .
Result string: -1.73

Query string: inhibition lookup needed for "CN(C)c1cc2c(Nc3ccc4c(cnn4Cc4ccccc4)c3)ncnc2cn1" , thanks.
Result string: -1.9

Query string: Quick one: inhibition of "Cc1cc(-c2ccccn2)cc(C)c1/C=C/c1cncc(-c2nn[nH]n2)c1" ?
Result string: -1.78

Query string: Can you share its inhibition? I mean this compound: "FC(F)(F)c1ccc(-c2nn3ncccc3c2-c2ccnc(Nc3ccc4c(c3)OCCO4)n2)cc1"
Result string: 6.19

Query string: Data request, read-out inhibition, for "NS(=O)(=O)c1ccc(Nc2cc(-c3cccc(O)c3)n[nH]2)cc1"
Result string: -1.36

Query string: What inhibition value was documented for this compound, "O=S(=O)(CCOCc1ccc(-c2ccc3ncnc(Nc4ccc(OCc5cccc(F)c5)c(Cl)c4)c3c2)o1)c1ccccc1" ?
Result string: -0.04

Query string: Recorded inhibition for "COc1ccc(-c2nn3ncccc3c2-c2ccnc(Nc3cccc(C(F)(F)F)c3)n2)cc1" , please?
Result string: -0.3

Query string: Which inhibition reading was recorded for the compound "Nc1nccc(C#Cc2cncnc2Nc2ccc(OCc3cccc(F)c3)c(Cl)c2)n1" ?
Result string: -1.78

Query string: # lookup: inhibition of "COc1cc(/C=N/Nc2ncnc3c2cnn3C(C)C)ccc1O"
Result string: 0.35

Query string: Please report the recorded inhibition for "c1ccc(Cc2nc3ccc(Nc4ncnc5ccccc45)cc3[nH]2)cc1" .
Result string: -0.58
